- MEASURED ON: KRAS G12C (Homo sapiens, UniProt P01116+P62937, G12C)
- Sequence (P01116 1-188 isoform P01116-2 G12C): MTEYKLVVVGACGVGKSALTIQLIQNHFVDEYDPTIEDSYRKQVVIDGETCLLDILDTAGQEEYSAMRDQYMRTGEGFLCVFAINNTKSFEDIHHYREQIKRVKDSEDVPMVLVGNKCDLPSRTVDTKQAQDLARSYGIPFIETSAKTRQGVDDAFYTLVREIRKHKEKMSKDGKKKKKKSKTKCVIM
- Sequence (P62937 whole entry): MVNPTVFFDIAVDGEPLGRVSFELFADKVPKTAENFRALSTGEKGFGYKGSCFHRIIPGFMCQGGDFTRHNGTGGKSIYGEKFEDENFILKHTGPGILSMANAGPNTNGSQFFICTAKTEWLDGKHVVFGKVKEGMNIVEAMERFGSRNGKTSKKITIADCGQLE
- MEASUREMENT DESCRIPTION: Disruption of BRAF RBD interaction with K-Ras (FRET / MOA assay)
- Format: biochemical
- EXPERIMENTAL PARAMETERS: read-out: KRAS G12C FRET data IC50
pIC50: −log10 of the molar value.
Parameter: pIC50. Scope: all listed entries.

CO[C@@H](C)c1ncccc1-c1c2c3cc(ccc3n1CC(F)(F)F)-c1csc(n1)C[C@H](NC(=O)[C@H](C(C)C)N(C)C(=O)N1CC(N(C)C)C1)C(=O)N1CCC[C@H](N1)C(=O)OCC(C)(C)C2 (atropisomer, axis not shown) :: < 5.00
CCn1c(-c2cccnc2[C@H](C)OC)c2c3cc(ccc31)-c1cc(O)cc(c1)C[C@H](NS(=O)(=O)C1CS(=O)(=O)C1)C(=O)N1CCC[C@H](N1)C(=O)OCC(C)(C)C2 (racemic) :: < 5.00
CCn1c(-c2cccnc2[C@H](C)OC)c2c3cc(ccc31)-c1csc(n1)C[C@H](NC(=O)[C@H](C(C)C)N1CCC3(CN(S(C)(=O)=O)C3)C1=O)C(=O)N1CCC[C@H](N1)C(=O)OCC(C)(C)C2 (racemic) :: < 5.00
CCn1c(-c2cccnc2[C@H](C)OC)c2c3cc(ccc31)-c1cc(O)cc(c1)C[C@H](NC(=O)[C@H](C(C)C)N(C)C(=O)[C@@H]1C[C@@H]1O)C(=O)N1CCC[C@H](N1)C(=O)OCC(C)(C)C2 (atropisomer, axis not shown) :: > 8.00
CCn1c(-c2cccnc2[C@H](C)OC)c2c3cc(ccc31)-c1cc(O)cc(c1)C[C@H](NS(=O)(=O)CC1CC1)C(=O)N1CCC[C@H](N1)C(=O)OCC(C)(C)C2 (racemic) :: < 5.00
CCn1c(-c2cccnc2[C@H](C)OC)c2c3cc(ccc31)-c1cc(O)cc(c1)C[C@H](NS(=O)(=O)N1CCC1)C(=O)N1CCC[C@H](N1)C(=O)OCC(C)(C)C2 (racemic) :: < 5.00

Please fill in: pIC50 reported for CCn1c(-c2cccnc2[C@H](C)OC)c2c3cc(ccc31)-c1cc(O)cc(c1)C[C@H](NS(=O)(=O)c1ccc(O)cc1)C(=O)N1CCC[C@H](N1)C(=O)OCC(C)(C)C2 (racemic) = < 5.00

// sample CCn1c(-c2cccnc2[C@H](C)OC)c2c3cc(ccc31)-c1cc(O)cc(c1)C[C@H](NC(=O)[C@H](C(C)C)N(C)C(=O)[C@@H]1CN(C(=O)OC)C[C@@H]1C)C(=O)N1CCC[C@H](N1)C(=O)OCC(C)(C)C2 (atropisomer, axis not shown) , its pIC50 was > 8.00

get_value(item= CCn1c(-c2cccnc2[C@H](C)OC)c2c3cc(ccc31)-c1cc(O)cc(c1)C[C@H](NS(=O)(=O)c1cn(C)c(C)n1)C(=O)N1CCC[C@H](N1)C(=O)OCC(C)(C)C2 (racemic) , readout=pIC50) returns < 5.00

====

- MEASURED ON: NRAS Q61K (Homo sapiens, UniProt P01111+P62937, Q61K)
- Sequence (P01111 whole entry Q61K): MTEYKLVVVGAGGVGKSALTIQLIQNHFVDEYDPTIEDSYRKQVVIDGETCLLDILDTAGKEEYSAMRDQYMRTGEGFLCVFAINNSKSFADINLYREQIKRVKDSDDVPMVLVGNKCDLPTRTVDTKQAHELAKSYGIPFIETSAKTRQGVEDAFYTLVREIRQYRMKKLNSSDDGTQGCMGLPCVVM
- Sequence (P62937 whole entry): as the sequence (P62937 whole entry) above
- MEASUREMENT DESCRIPTION: Disruption of BRAF RBD interaction with Ras (FRET / MOA assay)
- Format: biochemical
- EXPERIMENTAL PARAMETERS: read-out: NRAS Q61K FRET data IC50
pIC50: −log10 of the molar value.
pIC50 values for the molecules below.

The cases that follow already have their pIC50 on record.
CO[C@@H](C)c1ncccc1-c1c2c3cc(ccc3n1CC(F)(F)F)-c1csc(n1)C[C@H](NC(=O)[C@H](C(C)C)N(C)C(=O)N1CC(N(C)C)C1)C(=O)N1CCC[C@H](N1)C(=O)OCC(C)(C)C2 (atropisomer, axis not shown) :: < 5.00
CCn1c(-c2cc(N3CCN(C)CC3)cnc2[C@H](C)OC)c2c3cc(ccc31)-c1csc(n1)C[C@H](NC(=O)[C@H](C(C)C)N(C)C(=O)N1CC(C3COC3)C1)C(=O)N1CCC[C@H](N1)C(=O)OCC(C)(C)C2 (atropisomer, axis not shown) :: 7.00 to 8.00
CCn1c(-c2cc(N3CCN(C)CC3)cnc2[C@H](C)OC)c2c3cc(ccc31)-c1csc(n1)C[C@H](NC(=O)[C@H](C(C)C)N(C)C(=O)N1CC(OC)C1)C(=O)N1CCC[C@H](N1)C(=O)OCC(C)(C)C2 (atropisomer, axis not shown) :: 7.00 to 8.00

Now examine the next entry.
Given item CCn1c(-c2cccnc2[C@H](C)OC)c2c3cc(ccc31)-c1csc(n1)C[C@H](NC(=O)[C@H](C(C)C)N(C)C(=O)N1CC(CN(C)C)C1)C(=O)N1CCC[C@H](N1)C(=O)OCC(C)(C)C2 (atropisomer, axis not shown) , the value recorded as its pIC50 is 7.00 to 8.00

====

- MEASURED ON: KRAS G13D (Homo sapiens, UniProt P01116+P62937, G13D)
- Sequence (P01116 1-188 isoform P01116-2 G13D): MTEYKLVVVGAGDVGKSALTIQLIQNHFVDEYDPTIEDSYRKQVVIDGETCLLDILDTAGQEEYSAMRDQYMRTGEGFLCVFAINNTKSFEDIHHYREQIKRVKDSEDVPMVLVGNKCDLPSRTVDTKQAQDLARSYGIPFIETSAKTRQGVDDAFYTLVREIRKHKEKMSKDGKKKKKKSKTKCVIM
- Sequence (P62937 whole entry): as the sequence (P62937 whole entry) above
- MEASUREMENT DESCRIPTION: Disruption of BRAF RBD interaction with K-Ras (FRET / MOA assay)
MEASURED ENDPOINT: pIC50
When answering, recall that pIC50 equals minus log10 of the concentration in mol/L, and write that number alone.

Entry under test: `CCn1c(-c2cnccc2COC)c2c3cc(ccc31)-c1cc(O)cc(c1)C[C@H](NC(=O)[C@H](C(C)C)N(C)C(=O)OC1CN(C)C1)C(=O)N1CCC[C@H](N1)C(=O)OCC(C)(C)C2` . Its pIC50 was 6.67

====

- MEASURED ON: KRAS Q61H (Homo sapiens, UniProt P01116+P62937, Q61H)
- Sequence (P01116 1-188 isoform P01116-2 Q61H): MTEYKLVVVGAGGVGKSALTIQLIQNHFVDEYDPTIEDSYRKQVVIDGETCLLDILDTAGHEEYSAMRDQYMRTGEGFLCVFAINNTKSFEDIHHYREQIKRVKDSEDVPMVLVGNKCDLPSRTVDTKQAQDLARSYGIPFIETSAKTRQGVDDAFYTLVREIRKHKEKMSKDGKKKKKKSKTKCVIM
- Sequence (P62937 whole entry): as the sequence (P62937 whole entry) above
- MEASUREMENT DESCRIPTION: Disruption of BRAF RBD interaction with K-Ras (FRET / MOA assay)
- Format: biochemical
- EXPERIMENTAL PARAMETERS: read-out: KRAS Q61H FRET data IC50
- Method: Compound is present in plate wells as a 10-point 3-fold dilution series starting at a final concentration of 30 μM. […] Compounds that facilitate disruption of a Ras:RAF complex are identified as those eliciting a decrease in the TR-FRET ratio relative to DMSO control wells. Note—The following protocol describes a procedure for monitoring disruption of K-Ras G12C (GMP-PNP) binding to BRAF^RBD by a compound of the invention. […]
pIC50: −log10 of the molar value.
MEASURED ENDPOINT: pIC50

CCn1c(-c2cccnc2[C@H](C)OC)c2c3cc(ccc31)-c1cc(O)cc(c1)C[C@H](NS(=O)(=O)N1CCC1)C(=O)N1CCC[C@H](N1)C(=O)OCC(C)(C)C2 (racemic) [Compound A189] :: < 5.00
CCn1c(-c2cccnc2[C@H](C)OC)c2c3cc(ccc31)-c1cc(O)cc(c1)C[C@H](NS(=O)(=O)CC#N)C(=O)N1CCC[C@H](N1)C(=O)OCC(C)(C)C2 (racemic) [Compound A186] :: < 5.00
CCn1c(-c2cccnc2[C@H](C)OC)c2c3cc(ccc31)-c1cc(O)cc(c1)C[C@H](NC(=O)[C@H](C(C)C)N(C)C(=O)C1(C(=O)O)CC1)C(=O)N1CCC[C@H](N1)C(=O)OCC(C)(C)C2 (racemic) [Compound A150] :: 5.00 to 6.00

# molecule CCn1c(-c2cccnc2[C@H](C)OC)c2c3cc(ccc31)-c1cc(O)cc(c1)C[C@H](NS(=O)(=O)C1CS(=O)(=O)C1)C(=O)N1CCC[C@H](N1)C(=O)OCC(C)(C)C2 (racemic) [Compound A191] ; its pIC50 = < 5.00

For reference, reported pIC50 for CCn1c(-c2cccnc2[C@H](C)OC)c2c3cc(ccc31)-c1cc(O)cc(c1)C[C@H](NC(=O)[C@H](C(C)C)N(C)C(=O)[C@@H]1CCN(C(=O)OC)[C@@H]1c1ccccc1)C(=O)N1CCC[C@H](N1)C(=O)OCC(C)(C)C2 (atropisomer, axis not shown) [Compound A501] stands at > 8.00

// field: pIC50; key: CCn1c(-c2cccnc2[C@H](C)OC)c2c3cc(ccc31)-c1cc(cc(S(C)(=O)=O)c1)C[C@H](NC(=O)[C@H](C(C)C)N(C)C(C)=O)C(=O)N1CCC[C@H](N1)C(=O)OCC(C)(C)C2 (racemic) [Compound A154] ; value = < 5.00

pIC50 reported for this molecule CCn1c(-c2cccnc2[C@H](C)OC)c2c3cc(ccc31)-c1csc(n1)C[C@H](NC(=O)[C@H](C(C)C)N1CCC3(CN(S(C)(=O)=O)C3)C1=O)C(=O)N1CCC[C@H](N1)C(=O)OCC(C)(C)C2 (racemic) [Compound A234] : 5.00 to 6.00

pIC50 recorded for this molecule, CCn1c(-c2cccnc2[C@H](C)OC)c2c3cc(ccc31)-c1csc(n1)C[C@H](NC(=O)[C@H](C(C)C)N(C)C(=O)[C@H]1CCN(S(C)(=O)=O)C1)C(=O)N1CCC[C@H](N1)C(=O)OCC(C)(C)C2 (racemic) [Compound A237] , is 5.00 to 6.00

What the record says about CO[C@@H](C)c1ncccc1-c1c2c3cc(ccc3n1C)-c1cc(O)cc(c1)C[C@H](NC(=O)[C@H](C(C)C)N(C)C(C)=O)C(=O)N1CCC[C@H](N1)C(=O)OCC(C)(C)C2 (racemic) [Compound A104] : pIC50 is 5.00 to 6.00
